Experimental Target: T1, La-WT (La autoantigen, LARP3) (human, UniProt P05455 1-408)
T1 sequence: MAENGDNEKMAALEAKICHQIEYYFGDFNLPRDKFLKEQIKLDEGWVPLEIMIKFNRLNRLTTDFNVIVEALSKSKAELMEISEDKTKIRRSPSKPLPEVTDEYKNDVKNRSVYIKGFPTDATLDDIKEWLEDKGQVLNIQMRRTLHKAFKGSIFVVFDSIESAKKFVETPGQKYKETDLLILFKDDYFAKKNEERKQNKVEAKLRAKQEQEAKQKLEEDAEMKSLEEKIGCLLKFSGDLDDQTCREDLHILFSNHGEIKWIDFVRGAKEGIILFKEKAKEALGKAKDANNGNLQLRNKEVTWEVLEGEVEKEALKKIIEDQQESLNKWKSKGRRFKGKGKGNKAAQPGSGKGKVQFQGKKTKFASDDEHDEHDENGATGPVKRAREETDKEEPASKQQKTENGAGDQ
Assay: EMSA; EMSA: about 20 mM Tris-HCl pH 7.4, 150 mM NaCl, 3 mM MgCl2, 0.5 mM EDTA, IGEPAL, glycerol, 50 nM RNA, RT 10 min (with compounds: 18 mM Tris, 135 mM NaCl, 2.7 mM MgCl2, 0.45 mM EDTA, 0.025% IGEPAL, 2% glycerol, 10% DMSO); FP: 20 mM Tris-HCl pH 7.5, 3 mM MgCl2, 0.5 mM EDTA, 150 mM NaCl, 0.05% IGEPAL, 100 ug/ml BGG, RT 15 min
Experimental Parameters: protein: recombinant; tags: His
Measured Endpoint: Kd (nM)

binder="CCCUUUUCCCACCCCCUAGCGCCGCUGGGCCU (structured_RNA, 5' m7G cap) [capTOPf]" unit_symbol=nM experimental_value=183

Data origin: paper PMC5349447
